Observed IC50 for Acetylcholinesterase (Electrophorus electricus, UniProt O42275), reported per entry below.
Answers are plain numbers, in µM.

{"COMPOUND": "S=C1NC2=C(CN(CCN3CCOCC3)C/C2=C\\c2ccccc2)C(c2ccccc2)N1 (centres undefined)", "TARGET_SYSTEM": "Acetylcholinesterase (Electrophorus electricus, UniProt O42275)", "IC50 (µM)": 4.49}
{"COMPOUND": "Cc1ccc(/C=C2\\CN(CCN3CCOCC3)CC3=C2NC(=S)NC3c2ccc(C)cc2)cc1 (centres undefined)", "TARGET_SYSTEM": "Acetylcholinesterase (Electrophorus electricus, UniProt O42275)", "IC50 (µM)": 7.16}
{"COMPOUND": "COc1ccccc1/C=C1\\CN(CCN2CCOCC2)CC2=C1NC(=S)NC2c1ccccc1OC (centres undefined)", "TARGET_SYSTEM": "Acetylcholinesterase (Electrophorus electricus, UniProt O42275)", "IC50 (µM)": 8.39}
{"COMPOUND": "Fc1ccccc1/C=C1\\CN(CCN2CCOCC2)CC2=C1NC(=S)NC2c1ccccc1F (centres undefined)", "TARGET_SYSTEM": "Acetylcholinesterase (Electrophorus electricus, UniProt O42275)", "IC50 (µM)": 9.32}
{"COMPOUND": "CCN1CC2=C(NC(=S)NC2c2ccccc2)/C(=C/c2ccccc2)C1 (centres undefined)", "TARGET_SYSTEM": "Acetylcholinesterase (Electrophorus electricus, UniProt O42275)", "IC50 (µM)": 0.92}

Would you mind giving IC50 for every compound in the list below?
1. CCN1CC2=C(NC(=S)NC2c2ccc(F)cc2)/C(=C/c2ccc(F)cc2)C1 (centres undefined)
2. S=C1NC2=C(CN(CCN3CCOCC3)C/C2=C\c2ccc(Cl)cc2)C(c2ccc(Cl)cc2)N1 (centres undefined)
3. Cc1ccccc1/C=C1\CN(CCN2CCOCC2)CC2=C1NC(=S)NC2c1ccccc1C (centres undefined)
4. CCN1CC2=C(NC(=S)NC2c2ccccc2OC)/C(=C/c2ccccc2OC)C1 (centres undefined)

A:
2.07
5.49
8.15
4.92

---

TARGET_SYSTEM: Cholinesterase (Equus caballus)
Sequence (P81908 whole entry): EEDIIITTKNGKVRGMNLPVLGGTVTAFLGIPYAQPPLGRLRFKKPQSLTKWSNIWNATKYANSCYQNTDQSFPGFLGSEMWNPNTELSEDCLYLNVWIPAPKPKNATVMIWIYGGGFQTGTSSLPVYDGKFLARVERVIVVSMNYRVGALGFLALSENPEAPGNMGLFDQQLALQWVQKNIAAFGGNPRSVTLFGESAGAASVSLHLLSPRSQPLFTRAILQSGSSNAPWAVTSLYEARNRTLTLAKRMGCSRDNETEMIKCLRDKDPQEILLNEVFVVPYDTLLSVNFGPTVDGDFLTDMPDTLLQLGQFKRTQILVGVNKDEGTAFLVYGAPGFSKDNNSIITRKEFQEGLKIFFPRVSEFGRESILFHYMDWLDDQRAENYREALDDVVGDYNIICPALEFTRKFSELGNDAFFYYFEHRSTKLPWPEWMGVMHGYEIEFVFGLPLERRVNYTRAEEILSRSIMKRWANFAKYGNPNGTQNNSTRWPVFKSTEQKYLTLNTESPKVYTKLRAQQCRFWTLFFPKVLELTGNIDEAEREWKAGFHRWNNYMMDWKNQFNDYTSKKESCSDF
ASSAY_OVERVIEW: Inhibition of horse serum BChE using S-butyrylthiocholine chloride as substrate preincubated for 15 mins followed by substrate addition measured after 30 mins by Ellman's microplate assay
Decision: IC50 beneath 4 µM gives true; IC50 meeting or exceeding 4 µM gives false.

{"MOLECULE": "CCN1CC2=C(NC(=S)NC2c2cccc([N+](=O)[O-])c2)/C(=C/c2cccc([N+](=O)[O-])c2)C1 (centres undefined)", "CATEGORY_LABEL": "false"}
{"MOLECULE": "COc1ccccc1/C=C1\\CN(CCN2CCOCC2)CC2=C1NC(=S)NC2c1ccccc1OC (centres undefined)", "CATEGORY_LABEL": "false"}
{"MOLECULE": "CCN1CC2=C(NC(=S)NC2c2ccc(F)cc2)/C(=C/c2ccc(F)cc2)C1 (centres undefined)", "CATEGORY_LABEL": "false"}

Q: For this molecule, is IC50 lower than 4 µM? CCN1CC2=C(NC(=S)NC2c2ccccc2)/C(=C/c2ccccc2)C1 (centres undefined)
A: false

Q: Proceed to CCN1CC2=C(NC(=S)NC2c2ccccc2Cl)/C(=C/c2ccccc2Cl)C1 (centres undefined)
A: true

Q: Would you kindly repeat that for S=C1NC2=C(CN(CCN3CCOCC3)C/C2=C\c2ccc(Cl)cc2Cl)C(c2ccc(Cl)cc2Cl)N1 (centres undefined) ?
A: false

Q: Next molecule: Fc1ccc(/C=C2\CN(CCN3CCOCC3)CC3=C2NC(=S)NC3c2ccc(F)cc2)cc1 (centres undefined)
A: true

Q: Fc1ccccc1/C=C1\CN(CCN2CCOCC2)CC2=C1NC(=S)NC2c1ccccc1F (centres undefined) , same question.
A: true

Q: What about this molecule? CCN1CC2=C(NC(=S)NC2c2ccccc2F)/C(=C/c2ccccc2F)C1 (centres undefined)
A: false
